Ref: PubChem BioAssay (EPA / NIEHS)

# experimental_protocol: TOX21_TRB_BLA_Antagonist_Followup_viability: Viability Assessment in the Tox21 Thyroid Hormone Receptor beta Antagonism Beta-lactamase (BLA) Follow-Up Assay (AID 2283961)
Inconclusive results are not listed. Activity calls are given as the source filed them. Rule for the calls: active = hit-call score of the fitted dose curve at least 0.9, where 1 is the maximum; inconclusive = response in the unintended direction; inactive = score below 0.9.
Tick one outcome: true (1) (active), false (0) (inactive)

The examples below pair each entry with its known result.
INSERT INTO measurements (structure_string, label_class) VALUES
  ('Oc1ccc(Cl)cc1Cc1cc(Cl)ccc1O', 'true (1)'),
  ('Cc1oncc1C(=O)Nc1ccc(C(F)(F)F)cc1', 'false (0)');

I'd appreciate the recorded outcome for N=c1ccn2c(n1)O[C@H]1[C@H](O)[C@@H](CO)O[C@H]12 from this test.
false (0)

Now consider COc1ccc(C(Cl)=C(c2ccc(OC)cc2)c2ccc(OC)cc2)cc1 and answer again.
false (0)
